Cited source for all entries: PubChem BioAssay (NCI)

Tested on: MDA-MB-435 melanoma
measurement protocol: NCI-60 one-dose screen, 48 h (100 = growth as untreated, 0 = no growth, -100 = all killed)
condition summary: 10 µM unless noted
This is part of a sample that, as a whole, favours compounds with a hit. Of some 83,000 tested, about 20% had one in any assay. Activity calls are given as the source filed them. How the source made its calls: active means growth percent below 10; inactive means the rest.
Recorded growth, one value per entry.
measured property: growth

> print(dat)
                                   molecule               system            result
1  Fc1ccc2[nH]cc(-c3nc(-c4c[nH]c5c(Cl)nccc45)cs3)c2c1  MDA-MB-435 melanoma  60.4% (inactive)
2  CC(O)CNC(Cc1ccccc1)c1ccc2c(c1)OCO2 (stereo not drawn)  MDA-MB-435 melanoma  99.6% (inactive)
3  Cc1cccc(N2C(=O)/C(=C/C(Cl)=C/c3ccc([N+](=O)[O-])cc3)SC2=S)c1C  MDA-MB-435 melanoma  10.4% (inactive)
